This collection of values is drawn from the supplement of paper PMC9112550.

System: Escherichia coli TOP10;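 note: peptides expressed intracellularly from a pBAD plasmid library in pooled LB shake-flask culture, induced with 0.3% L-arabinose, DNA abundance read by NGS, three biological replicates, DESeq2 with apeglm shrinkage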
Assay: shrunken log2 fold change of peptide-encoding DNA abundance (4.5 h post-induction vs induction); higher = less antimicrobial activity (less host growth inhibition)
Conditions: time post-induction: 4.5 h; library: site-saturation at positions 5, 18, 19, 20
Label True for high-side shrunken log2 fold change (at or above 0.2) and False for low-side shrunken log2 fold change (below it).

For orientation, consider the following solved cases.
[
  {
    "macromolecule.sequence": "RRIRVRPPRLPRPRPRPNEDPRP",
    "label.class": "False"
  },
  {
    "macromolecule.sequence": "RRIRDRPPRLPRPRPRPFESPRP",
    "label.class": "False"
  },
  {
    "macromolecule.sequence": "RRIRLRPPRLPRPRPRPRSAPRP",
    "label.class": "True"
  },
  {
    "macromolecule.sequence": "RRIRCRPPRLPRPRPRPPDFPRP",
    "label.class": "False"
  },
  {
    "macromolecule.sequence": "RRIRVRPPRLPRPRPRPAIYPRP",
    "label.class": "False"
  },
  {
    "macromolecule.sequence": "RRIRVRPPRLPRPRPRPRMSPRP",
    "label.class": "False"
  }
]

## Input Please indicate if the recorded shrunken log2 fold change for `RRIRGRPPRLPRPRPRPLVNPRP` meets or exceeds 0.2.
## Output True

## Input Please indicate if the recorded shrunken log2 fold change for `RRIRRRPPRLPRPRPRPVFAPRP` meets or exceeds 0.2.
## Output True

## Input Please indicate if the recorded shrunken log2 fold change for `RRIRVRPPRLPRPRPRPEAGPRP` meets or exceeds 0.2.
## Output True
